src = patent US7998979B2

# Tested on: M. Smegmatis (ATCC607)
# Procedure text: In-vitro anti-bacterial activity against strain M. Smegmatis ATCC607
# Assay type: cell-based
# Study conditions: Mycolicibacterium smegmatis, ATCC607, 48 h, 90% inhibitory concentration for bacterial growth, 37° C., read-out: IC90 (μg/ml) MSM 607
Quantity kind: IC90 (µg/mL)
Field: numeric (µg/mL). Do not append units.

Some compounds with known IC90 results, for comparison:
COc1nc2ccc(Br)cc2cc1C(c1ccccc1)C(O)(CN(CCN(C)C)Cc1ccccc1)c1ccccc1 (centres unmarked)	55.7
CCN(CC)CCCSCC(O)(c1ccccc1)C(c1ccccc1)c1cc2cc(Br)ccc2nc1OC (single isomer, unassigned)	1.88
COc1nc2ccc(Br)cc2cc1C(c1ccccc1)C(O)(CSCCCN1CCN(C)CC1)c1ccccc1 (single isomer, unassigned)	2.2
COc1nc2ccc(Br)cc2cc1C(c1ccccc1)C(O)(CN(C)CCN(C)C)c1ccccc1 (single isomer, unassigned)	8.69

For the next question, use this compound.
Request body: readout IC90, system M. Smegmatis (ATCC607), query COc1nc2ccc(Br)cc2cc1C(c1ccccc1)C(O)(CSCCCN(C)C)c1ccccc1 (single isomer, unassigned) . Return the value.
2.01

###

# System: Streptococcus pneumoniae (ATCC6305)
# Procedure text: IC90 determination, microtitre plate assay, SPN 6305
# Type: cell-based
# Study conditions: 90% inhibitory concentration for bacterial growth, 24 hours, 37° C.
Quantity kind: IC90 (μg/ml) SPN 6305
I'd appreciate it if you included the unit after the number.

Here's what some known entries look like.
COc1nc2ccc(Br)cc2cc1C(c1ccccc1)C(O)(CSCCN(C)C)c1ccccc1 (single isomer, unassigned) [Compound 2]	8.74 µg/mL
CCN(CC)CCSCC(O)(c1ccccc1)C(c1ccccc1)c1cc2cc(Br)ccc2nc1OC (single isomer, unassigned) [Compound 6]	23.07 µg/mL
COc1nc2ccc(Br)cc2cc1C(c1ccccc1)C(O)(CSCCCN(C)C)c1ccccc1 (single isomer, unassigned) [Compound 4]	10.06 µg/mL

Please examine the following record next.
Given COc1nc2ccc(Br)cc2cc1C(c1ccccc1)C(O)(CSCCCN1CCCCC1)c1ccccc1 (single isomer, unassigned) [Compound 9] , state its recorded IC90 (μg/ml) SPN 6305.
60.56 µg/mL

###

Quantity kind: melting point
Reply with the number and its unit after it.

COc1nc2ccc(Br)cc2cc1C(c1ccccc1)C(O)(CSCCCN1CCN(C)CC1)c1ccccc1 (single isomer, unassigned) [Compound 11]	136 °C

Give the measured melting point of COc1nc2ccc(Br)cc2cc1C(c1ccccc1)C(O)(CSCCN(C)C)c1ccccc1 (single isomer, unassigned) [Compound 1] .
175 °C

What value of melting point has been recorded for this entry: CCN(CC)CCCSCC(O)(c1ccccc1)C(c1ccccc1)c1cc2cc(Br)ccc2nc1OC (single isomer, unassigned) [Compound 7]
104 °C

// returns reported melting point for input COc1nc2ccc(Br)cc2cc1C(c1ccccc1)C(O)(CSCCCN1CCCCC1)c1ccccc1 (single isomer, unassigned) [Compound 9]
158 °C

Query (compound): COc1nc2ccc(Br)cc2cc1C(c1ccccc1)C(O)(CN(C)CCN(C)C)c1ccccc1 (single isomer, unassigned) [Compound 13] ; field requested: melting point
128 °C

Param item = COc1nc2ccc(Br)cc2cc1C(c1ccccc1)C(O)(CSCCCN(C)C)c1ccccc1 (single isomer, unassigned) [Compound 4] ; retrieve measured melting point.
136 °C

If you can, please state the reported melting point value of CCN(CC)CCSCC(O)(c1ccccc1)C(c1ccccc1)c1cc2cc(Br)ccc2nc1OC (single isomer, unassigned) [Compound 6] .
148 °C
